- TARGET ENTITY: murine iNOS (Mus musculus, UniProt P29477)
- Construct: made in house; host or cells: E. coli (plasmid pCWiNOS)
- PROCEDURE SUMMARY: NOS enzyme inhibitory assay (hemoglobin capture), iNOS
- Type: biochemical
- CONDITION LABEL: Table 1b; read-out: Ki iNOS
pKi: −log10 of the molar value.
Label yes (1) when pKi is at or above 5; otherwise label no (0).

Solved entries:
• Cc1cc(N)nc(C[C@H]2CNC[C@H]2NC(=O)CNCCc2cccc(F)c2)c1.Cl.Cl.Cl (racemic) [Compound P-77, trihydrochloride] = yes (1)
• Cc1cc(N)nc(C[C@H]2CNC[C@H]2NCCNCc2ccc(C(F)(F)F)cc2)c1.Cl.Cl.Cl.Cl (racemic) = no (0)
• Cc1cc(N)nc(CC2CNCC2NCCNCCc2ccc(F)cc2)c1.Cl.Cl.Cl.Cl (racemic) = yes (1)

Let us examine a further case.
API: above_or_equal(metric=pKi, cutoff=5) for item Cc1cc(N)nc(C[C@@H]2CNC[C@@H]2NCCOCCc2cccc(F)c2)c1 (racemic)
yes (1)

* * *

- TARGET ENTITY: murine iNOS (Mus musculus, UniProt P29477)
- Construct: made in house; host or cells: E. coli (plasmid pCWiNOS)
- PROCEDURE SUMMARY: NOS enzyme inhibitory assay (hemoglobin capture), iNOS
- Format: biochemical
- CONDITION LABEL: Table 1a; apparent Ki calculated from IC50, Km […]; read-out: calc. Ki iNOS
# pKi listing for each entry below
In plain terms, pKi is the concentration in mol/L turned into minus its base-10 logarithm.

- Cl.Cl.Cl.Cl.Nc1cccc(CC2CNCC2NCC2CCCN2)n1 (stereo not drawn) [Compound P-25]: 4.73
- Cl.Cl.Cl.NCCN1C[C@H](Cc2cccc(N)n2)[C@@H](O)C1 (racemic): 3.98
- Nc1cccc(CC2CNCC2NCCCO)n1 (racemic): 3.63
- Nc1cccc(CC2CNCC2NC2CCN(Cc3ccccc3)C2)n1 (stereo not drawn) [Compound P-37]: 3.64
- Nc1cccc(CC2CNCC2NC2CCNC2)n1 (racemic) [Compound P-20]: 3.63
- Cl.Cl.Cl.Nc1cccc(CC2CN(Cc3ccccc3)CC2NCCCO)n1 (racemic): 2.60
- Nc1cccc(CC2CNCC2NC2CCN(Cc3ccccc3)C2)n1 (racemic) [Compound P-22]: 3.68
- Nc1cccc(CC2CNCC2NC2CCNC2)n1 (racemic) [Compound P-19]: 3.60

Simply: Nc1cccc(CC2CNCC2NC2CCNC2)n1 (racemic) [Compound P-34] , murine iNOS (Mus musculus, UniProt P29477), pKi = 3.76

# Cl.Cl.Cl.Cl.Nc1cccc(CC2CNCC2NCC2CCCN2)n1 (stereo not drawn) [Compound P-24] with murine iNOS (Mus musculus, UniProt P29477): pKi is 3.51

Tested on murine iNOS (Mus musculus, UniProt P29477): Nc1cccc(CC2CNCC2NC2CCNC2)n1 (racemic) [Compound P-35] . Observed pKi: 3.70

Tested on murine iNOS (Mus musculus, UniProt P29477), the item Cl.Cl.Nc1cccc(CC2CN(Cc3ccccc3)CC2O)n1 (racemic) showed pKi equal to 3.04

Cl.Cl.Cl.Cl.NCCNC1CC(N)CC1Cc1cccc(N)n1 (racemic) [Compound P-45] tested on murine iNOS (Mus musculus, UniProt P29477) gave pKi: 4.15

* * *

Below are IC50 values measured for UniProt P29477.
Output spec: scalar in µM, unitless text.

# example entries with known answers
• Nc1cccc(CC2CNCC2NC2CCN(Cc3ccccc3)C2)n1 (stereo not shown) [Compound P-39] = 716
• Nc1cccc(C[C@H]2CNC[C@@H]2NCCNCc2ccccc2)n1 (racemic) [Compound P-18] = 366
• Cl.Cl.Cl.Nc1cccc(C[C@H]2CN(Cc3ccccc3)C[C@H]2NCCCc2ccccc2)n1 (racemic) [Compound P-4] = 1340
• Cl.Cl.Cl.Cl.Nc1cccc(C[C@@H]2CNC[C@H]2NC[C@H]2CCCN2)n1 [Compound P-26] = 375
• Cl.Cl.Cl.Cl.Nc1cccc(CC2CNCC2NCC2CCCN2)n1 (stereo not shown) [Compound P-23] = 229
• Cl.Cl.Cl.Cl.Nc1cccc(C[C@H]2CNC[C@H]2NC[C@H]2CCCN2)n1 [Compound P-42] = 154
• Nc1cccc(CC2CNCC2NC2CCN(Cc3ccccc3)C2)n1 (stereo not shown) [Compound P-38] = 937
• Cl.Cl.Nc1cccc(CC2CNCC2O)n1 (racemic) [Compound P-11] = 56
• CN(C)CCNC1CNCC1Cc1cccc(N)n1 (racemic) [Compound P-15] = 679
• Nc1cccc(CC2CNCC2NC2CCNC2)n1 (racemic) [Compound P-20] = 516

GET /values?item= Nc1cccc(CC2CNCC2NC2CCNC2)n1 (racemic) [Compound P-19] &system= UniProt P29477 returns IC50: 559

GET /values?item= Cl.Cl.Cl.Nc1cccc(CC2CN(Cc3ccccc3)CC2NCCCO)n1 (racemic) [Compound P-5] &system= UniProt P29477 returns IC50: 5560

GET /values?item= Cl.Cl.Cl.Nc1cccc(C[C@H]2CNC[C@H]2NCCCc2ccccc2)n1 (racemic) [Compound P-27] &system= UniProt P29477 returns IC50: 366

* * *

As a worked illustration, we turn to IC50 data collected for bovine eNOS (Bos taurus, UniProt P29473).
Number only, in mM; omit the unit.

Past entries and their recorded results:
- Nc1cccc(CC2CNCC2NC2CCNC2)n1 (racemic) [Compound P-35]: 2.92
- Cl.Cl.Cl.Nc1cccc(CC2CNCC2NCCCc2ccccc2)n1 (racemic): 0.586

// IC50 lookup, compound = Nc1cccc(CC2CNCC2NC2CCNC2)n1 (racemic) [Compound P-20] , result: 4.3

* * *

Recorded Ki values for a group of compounds are listed next.
- TARGET ENTITY: bovine eNOS (Bos taurus)
- Construct: made in house; host or cells: E. coli (plasmid Bov-eNOSpCW)
- PROCEDURE SUMMARY: NOS enzyme inhibitory assay (hemoglobin capture), eNOS
- Format: biochemical
- CONDITION LABEL: Table 1a; apparent Ki calculated from IC50, Km 1.7 μM; read-out: calc. Ki eNOS

Recorded Ki, per entry:
* Nc1cccc(CC2CNCC2NCC(N)Cc2ccccc2)n1 (racemic) [Compound P-16] | > 1450 µM
* Nc1cccc(C[C@H]2CNC[C@H]2NCCNCc2ccccc2)n1 (racemic) | > 10200 µM
* Nc1cccc(CC2CNCC2NC2CCN(Cc3ccccc3)C2)n1 (stereo not shown) [Compound P-38] | 181 µM
* Nc1cccc(CC2CNCC2NC2CCNC2)n1 (racemic) [Compound P-19] | 460 µM
* Cl.Cl.Cl.Nc1cccc(CC2CNCC2NCCCc2ccccc2)n1 (racemic) | 85.2 µM

// Ki value for Nc1cccc(CC2CNCC2NC2CCNC2)n1 (racemic) [Compound P-34] : 243 µM

The reported Ki of the compound Cc1cc(N)nc(C[C@H]2CNC[C@@H]2NCCN)c1.Cl.Cl.Cl.Cl (racemic) was 263 µM

Memo: Nc1cccc(CC2CNCC2NCC(N)Cc2ccccc2)n1 (racemic) [Compound P-17] , reported Ki: > 1450 µM

# Ki (compound: Nc1cccc(CC2CNCC2NCC(N)Cc2ccccc2)n1 (racemic) [Compound P-32] ) is > 1450 µM

Sample Nc1cccc(CC2CNCC2NCC(N)Cc2ccccc2)n1 (racemic) [Compound P-31] ; Ki observed: > 1450 µM

* * *

IC50, rat nNOS (Rattus norvegicus), per-entry values.

IC50 reported for this compound Nc1cccc(CC2CNCC2NCC(N)Cc2ccccc2)n1 (racemic) [Compound P-31] : 21 µM

Lookup result for Nc1cccc(CC2CNCC2NC2CCN(Cc3ccccc3)C2)n1 (stereo not shown) [Compound P-38] ; measured IC50: 23.8 µM

Value of IC50 reported for the compound Nc1cccc(CC2CNCC2NC2CCN(Cc3ccccc3)C2)n1 (racemic) [Compound P-22] is 156 µM

// Nc1cccc(CC2CNCC2NC2CCNC2)n1 (racemic) [Compound P-20] : IC50 value = 112 µM

* * *

We begin with a simple list: items and their reported pKi.
- TARGET ENTITY: murine iNOS (Mus musculus)
- Construct: made in house; host or cells: E. coli (plasmid pCWiNOS)
- PROCEDURE SUMMARY: NOS enzyme inhibitory assay (hemoglobin capture), iNOS
- Assay type: biochemical
- CONDITION LABEL: Table 1b; read-out: Ki iNOS
# reply with the number alone; pKi is -log10 of concentration in mol/L

Form field pKi, entry Cc1cccc(CNCCN[C@H]2CNC[C@@H]2Cc2cc(C)cc(N)n2)c1.Cl.Cl.Cl.Cl (racemic) : 4.08

Measured pKi, Cc1cc(N)nc(C[C@H]2CNC[C@H]2OCC(=O)NCCc2cccc(F)c2)c1 (racemic) : 4.89

All figures here come from patent US7994326B2.
